# tgt: Drosophila OR98a (Drosophila melanogaster, UniProt Q9VAZ3)
# Construct: expressed in transfected cells
# Sequence (Q9VAZ3 whole entry, one chain of several): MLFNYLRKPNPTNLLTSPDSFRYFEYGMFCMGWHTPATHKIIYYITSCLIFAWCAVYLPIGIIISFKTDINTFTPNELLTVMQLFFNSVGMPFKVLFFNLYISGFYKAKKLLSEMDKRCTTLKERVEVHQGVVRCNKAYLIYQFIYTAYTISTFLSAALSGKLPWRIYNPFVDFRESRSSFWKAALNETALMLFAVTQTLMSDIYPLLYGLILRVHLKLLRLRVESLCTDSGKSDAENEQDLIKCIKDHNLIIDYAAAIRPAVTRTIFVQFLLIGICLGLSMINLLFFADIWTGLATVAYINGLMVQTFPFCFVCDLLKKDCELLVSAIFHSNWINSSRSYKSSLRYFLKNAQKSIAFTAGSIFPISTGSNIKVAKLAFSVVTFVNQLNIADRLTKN
# method.description: Calcium ion fluorescence (GCaMP6) assay, OR98a stable HEK293 cell line;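 note: ligand concentrations in µM final VOC concentration in well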
# Format: cell-based
# condition.notes: HEK293, read-out: Average response
readout: activation at 1 µM (%)
Reply with just the number (in %).

### Prompt Requested field: activation at 1 µM. Item: CCCCCCCCC(CO)CCCCCC (stereo not shown)
### Response 0

### Prompt Requested field: activation at 1 µM. Item: CCCCCOC(C)=O [pentyl acetate]
### Response 1.61

### Prompt Requested field: activation at 1 µM. Item: `Cc1cccc(O)c1`
### Response 4.63

### Prompt Requested field: activation at 1 µM. Item: `CCCCCCCCC=O`
### Response 0

### Prompt Requested field: activation at 1 µM. Item: `Cc1ccccc1C`
### Response 0

### Prompt Requested field: activation at 1 µM. Item: `CCCCCO`
### Response 0

### Prompt Requested field: activation at 1 µM. Item: `CCCCCCCCCCC`
### Response 2.26

### Prompt Requested field: activation at 1 µM. Item: `CCCCCC(=O)CC`
### Response 0

### Prompt Requested field: activation at 1 µM. Item: `C=Cc1ccccc1`
### Response 4.43

### Prompt Requested field: activation at 1 µM. Item: CCCCCC(O)CC (stereo not shown)
### Response 1.89

###

# tgt: Drosophila OR47a (Drosophila melanogaster)
# Construct: expressed in transfected cells
# Sequence (P81921 1-385): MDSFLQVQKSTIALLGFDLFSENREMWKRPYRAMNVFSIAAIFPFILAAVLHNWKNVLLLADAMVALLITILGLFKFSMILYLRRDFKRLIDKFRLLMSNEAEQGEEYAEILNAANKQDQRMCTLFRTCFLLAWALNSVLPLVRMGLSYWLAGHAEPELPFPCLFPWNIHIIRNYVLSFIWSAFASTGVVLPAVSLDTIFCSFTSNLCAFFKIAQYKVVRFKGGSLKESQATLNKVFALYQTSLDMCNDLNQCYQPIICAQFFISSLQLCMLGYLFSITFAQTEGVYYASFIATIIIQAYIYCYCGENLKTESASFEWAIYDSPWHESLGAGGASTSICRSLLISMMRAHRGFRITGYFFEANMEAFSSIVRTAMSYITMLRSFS
# Sequence (Q9VNB5 1-486 partner): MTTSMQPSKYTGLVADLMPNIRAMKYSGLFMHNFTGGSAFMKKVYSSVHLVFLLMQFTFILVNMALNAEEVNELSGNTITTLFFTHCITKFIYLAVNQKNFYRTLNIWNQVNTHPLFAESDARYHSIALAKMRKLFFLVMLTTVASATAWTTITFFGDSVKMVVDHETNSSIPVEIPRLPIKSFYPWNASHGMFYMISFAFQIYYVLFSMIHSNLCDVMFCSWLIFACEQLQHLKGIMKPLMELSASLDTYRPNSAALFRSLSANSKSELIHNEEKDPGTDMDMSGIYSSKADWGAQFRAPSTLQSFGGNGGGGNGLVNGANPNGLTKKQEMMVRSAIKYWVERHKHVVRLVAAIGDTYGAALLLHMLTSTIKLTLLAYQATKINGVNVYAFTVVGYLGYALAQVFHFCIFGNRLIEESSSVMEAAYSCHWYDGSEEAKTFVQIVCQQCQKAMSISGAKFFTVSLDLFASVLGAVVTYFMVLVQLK
# method.description: Calcium ion fluorescence (GCaMP6) assay, OR47a stable HEK293 cell line
# Format: cell-based
# condition.notes: OR47a cell line; odorant cc. 10 µM; mean of biological replicates
I'd appreciate it if you could supply Average response values for the items below.
Reply: number alone, nothing else.

### Prompt Requested field: Average response. Item: CCCCCC(=O)OCC [ethyl hexanoate]
### Response 0.26

### Prompt Requested field: Average response. Item: CC(=O)OCC(C)C [isobutyl acetate]
### Response 0.15

### Prompt Requested field: Average response. Item: CCCCCCCCCCCCCC [tetradecane]
### Response 0.03

### Prompt Requested field: Average response. Item: CC(C)=CCC/C(C)=C/CC/C(C)=C/CO [e,e-farnesol]
### Response 0.00

### Prompt Requested field: Average response. Item: C=Cc1ccccc1 [styrene]
### Response 0.00

### Prompt Requested field: Average response. Item: Cc1ccc(C(C)C)cc1 [p-cymene]
### Response 0.00

### Prompt Requested field: Average response. Item: CC1=CCC[C@@]2(C)[C@@H]3CC[C@]12CC3(C)C [(−)-α-neoclovene]
### Response 0.00

### Prompt Requested field: Average response. Item: CCCCCCCCC=O [nonanal]
### Response 0.00

### Prompt Requested field: Average response. Item: Cc1ccccc1 [toluene]
### Response 0.0267

### Prompt Requested field: Average response. Item: C=C(C)[C@H]1CC=C(C)CC1 [limonene]
### Response 0.00

### Prompt Requested field: Average response. Item: CCCCCCCO [1-heptanol]
### Response 0.00

# credit: paper PMC10709440
